assay: HMF distribution between MIBK phase and aqueous phase with different salts and boric acid; format: physicochemical; details: 30 wt % fructose, B(OH)3 0.3 g and salt 3 mmol (anion) in 3 mL, MIBK:aqueous 4:1, 150° C. 45 min
attribute.measured: R value (MIBK:aq)
Provide a numeric answer; units are not to be included.

> print(dat)
                                   compound  attribute.measured  reported
1  O=[N+]([O-])[O-].[K+] [KNO3, potassium nitrate]   R value (MIBK:aq)       0.8

Suppose we examine the compound [Cl][Fe]([Cl])[Cl] ; what R value (MIBK:aq) value has been reported? 1.1

Suppose we examine the compound [Br-].[K+] [KBr, potassium bromide] ; what R value (MIBK:aq) value has been reported? 0.9

Suppose we examine the compound [Cl-].[Cl-].[Mg+2] ; what R value (MIBK:aq) value has been reported? 1.1
